- measurement_target: P. falciparum apicoplast DNA polymerase (Pf-apPOL) (Plasmodium falciparum)
- Sequence (Q8ILY1 entry or part of it): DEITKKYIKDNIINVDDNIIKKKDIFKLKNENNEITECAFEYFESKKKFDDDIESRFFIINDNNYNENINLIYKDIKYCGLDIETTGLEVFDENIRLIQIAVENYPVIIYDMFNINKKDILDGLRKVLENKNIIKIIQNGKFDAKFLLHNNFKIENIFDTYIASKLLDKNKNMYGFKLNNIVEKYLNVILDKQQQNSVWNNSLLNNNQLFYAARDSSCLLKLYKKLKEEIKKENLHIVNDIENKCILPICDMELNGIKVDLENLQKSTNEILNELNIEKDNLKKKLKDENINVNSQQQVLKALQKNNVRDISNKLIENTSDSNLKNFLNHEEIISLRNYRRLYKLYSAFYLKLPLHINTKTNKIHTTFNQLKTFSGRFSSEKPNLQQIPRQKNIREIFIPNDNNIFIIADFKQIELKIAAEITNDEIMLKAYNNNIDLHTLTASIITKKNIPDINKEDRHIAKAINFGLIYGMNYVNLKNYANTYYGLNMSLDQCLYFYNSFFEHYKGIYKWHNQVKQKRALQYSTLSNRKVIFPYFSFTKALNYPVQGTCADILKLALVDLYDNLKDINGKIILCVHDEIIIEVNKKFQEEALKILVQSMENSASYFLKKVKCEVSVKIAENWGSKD
- assay_method_text: Fluorescence-based high-throughput DNA polymerase assay (molecular beacon), primary screen and dose-response
- Type: biochemical
- settings: DRC-2; 5'; concentration 10
- Text: The HT assay employs a molecular beacon, a stem-loop DNA template with a Cy3 dye and the Black Hole Quencher on the 3′ and 5′ ends of the DNA, respectively. Pf-apPOL concentration is based on a calculated absorptivity of ε280 = 56750 M^−1 cm^−1. […] To identify apPOL inhibitors we utilised our previously developed high-throughput DNA polymerase assay. […] The assay accurately recapitulates the kinetic behaviour of apPOL, as measured through more conventional low-throughput gel-based assays. […]
Could you label it fulfilled if measured % inhibition Apo pol 5' is 30% or higher, and not fulfilled otherwise?

| compound | measurement_target | group_label |
| --- | --- | --- |
| Cc1cccc(CC(=O)N2CCc3c(nc4cc(-c5ccccc5)[nH]n4c3=O)C2)c1 | P. falciparum apicoplast DNA polymerase (Pf-apPOL) (Plasmodium falciparum) | fulfilled |
| O=C(Cc1cc(=O)[nH]c(SCc2ccccc2)n1)Nc1ccc2c(c1)OCO2 | P. falciparum apicoplast DNA polymerase (Pf-apPOL) (Plasmodium falciparum) | not fulfilled |
| O=C(c1c[nH]c2ncccc12)N1CCCC1 [Molecule 63, O=C(c1c[nH]c2c1cccn2)N1CCCC1] | P. falciparum apicoplast DNA polymerase (Pf-apPOL) (Plasmodium falciparum) | not fulfilled |

Next item in the queue.
Check if % inhibition Apo pol 5' >= 30% (inclusive). Item: O=C(Cn1ccc2c(=O)[nH]ccc21)Nc1ccc(Cl)cc1 [Molecule 36, O=C(Cn1ccc2c1cc[nH]c2=O)Nc1ccc(cc1)Cl]
fulfilled
